Recorded values, source the supplement of paper PMC7801607.

Give measured % viability of CHO cells for each item. Keep answers brief.
# Test system: CHO
# method: % viability of CHO cells (MTT); higher = less toxic
# settings: 20 µM; 48 h
Answers are plain numbers, in %.

Reference set (2 entries):
Nc1nc2c(Cc3cccnc3)c[nH]c2c(=O)[nH]1
113
CNC(=O)C1O[C@@H](n2cnc3c(NCc4cccc(I)c4)nc(Cl)nc32)[C@H](O)[C@@H]1O (stereo not given in full)
132

Batch of 6 compounds: report % viability of CHO cells for each.
1. NCC(=O)Nc1ccc(-n2nc(C(F)(F)F)cc2-c2ccc3c(ccc4ccccc43)c2)cc1
2. NC[C@H]1O[C@H](O[C@H]2[C@H](O)[C@@H](O[C@H]3O[C@H](CO)[C@@H](O)[C@H](N)[C@H]3O)[C@H](N)C[C@@H]2N)[C@H](N)C[C@@H]1O
3. O=C(NCCN1CCCCC1)c1cccc(C(F)(F)F)c1
4. CN1CCN(Cc2ccc(-c3cnc4[nH]cc(-c5ccc6[nH]ccc6c5)c4c3)cc2)CC1
5. O=C(Nc1ccc(-c2ccccc2)cc1)C1=C(O)C(Cc2ccccc2)OC1=O (stereo not given)
6. Cc1c(N)cccc1Cn1ccc(OCCc2cccs2)cc1=O

Response given:
64.1
8.4
-13
26.3
90.4
54.9

Below are some compounds; for each one, tell me its % viability of CHO cells.
1. Cc1cc(NS(=O)(=O)c2ccc(-c3ccc(F)cc3F)cc2)no1
2. COc1ccc(CNC(=O)C2CCN([C@H](C)c3cccc4ccccc34)CC2)cc1
3. Nc1nc(=O)c(Br)c(-c2cccc(Cl)c2)[nH]1
4. NC[C@H]1OB(O)c2c(OCCCO)cccc21
5. Nc1nnc(-c2ccc(Cl)cc2)s1
6. CCCCCOc1ccc(/C=C2\Oc3c(ccc(O)c3O)C2=O)c(O)c1

Response given:
1: 116; 2: 70.1; 3: 109; 4: 109; 5: 88.7; 6: 127

Hello, I would appreciate it if you could give % viability of CHO cells for each entry below.
1. Cc1ccc(NC(=O)c2cc(Cl)ccc2O)cc1
2. CCOC(=O)N[C@@H]1CC[C@@H]2[C@@H](C1)C[C@H]1C(=O)O[C@H](C)[C@H]1[C@H]2/C=C/c1ccc(-c2cccc(F)c2)cn1
3. CSC[C@H]1CN(Cc2c[nH]c3c(N)ncnc23)C[C@@H]1O
4. N=c1n(CCN2CCCCC2)c2ccccc2n1CC(O)COc1ccc(Cl)cc1Cl (stereo not given)
5. Nc1cnn(C2OC(CO)C(O)C2O)c(=O)n1 (stereo not given)

Response given:
-0.714
62.2
46.2
-3.8
110

The compound COc1cc(C)c2c(Oc3cccc(C(F)(F)F)c3)c(OC)cc(NC(C)CCCN)c2n1 (stereo not given) showed % viability of CHO cells equal to -0.735

###

# Tested on: Plasmodium falciparum NF54 stage IV/V gametocytes
# method: % inhibition of gametocyte viability (PrestoBlue); higher = more inhibition
# settings: 5 µM; 48 h
Kindly apply the following: 1 if % inhibition of gametocyte viability is less than 8%, 0 in every other case.

Answered cases to consult:
Oc1cc(-c2cccc3ccccc23)[nH]n1
0
Cc1ccc(S(=O)(=O)Nc2cccc3cccnc23)cc1
1
O=C(NO)C1(CS(=O)(=O)c2ccc(Oc3ccc(Cl)cc3)cc2)CCOCC1
0
CCCCc1ccc(-c2nc(C)c(C(=O)OC)s2)cc1
0

Field: next molecule
Challenge: Given the entry CCc1c(OCC2CCC2)c2cc(F)ccc2[nH]c1=O , would its reported % inhibition of gametocyte viability be below 8%?
Response given: 1

###

# Test system: Plasmodium falciparum NF54 stage IV/V gametocytes
# method: % inhibition of gametocyte viability (PrestoBlue); higher = more inhibition
# settings: 1 µM; 48 h
measurement-name: % inhibition of gametocyte viability

Answered examples (5):
Cc1nc(Nc2ccc(F)cc2)nc(N2CCc3ccccc3C2C)c1C (centres undefined)
2.28%
CCN(CC)S(=O)(=O)c1ccc(Cl)c(C(=O)Nc2sc3c(c2C#N)CCCC3)c1
< 0%
CC(C)(C)NC(=O)[C@@H]1C[C@@H]2CCCC[C@@H]2CN1C[C@@H](O)[C@H](Cc1ccccc1)NC(=O)[C@H](CC(N)=O)NC(=O)c1ccc2ccccc2n1
< 0%
NC(=O)[C@@H]1CC[C@@H]2CN1C(=O)N2OS(=O)(=O)O
< 0%
CCn1cc(C(=O)O)c(=O)c2cc(F)c(N3CCNC(C)C3)c(F)c21 (centres undefined)
34.9%

For the 4 molecules below, give their % inhibition of gametocyte viability values.
1. O=C(/C(=C/c1ccc(Cl)cc1Cl)n1ccnc1)c1ccc(Cl)cc1
2. COc1ccc(OCc2ccc(COc3c(Cl)cccc3Cl)cc2)c(Cl)c1
3. Cc1cc(-c2ccccc2)c(C(=O)C(=O)Nc2ccc(N3CCN(c4ncc(F)cn4)CC3)cc2)n1C
4. CC(C)(C)c1cccc(-c2nc3cc(C(=N)N)ccc3[nH]2)c1O

Response given:
1. 38.5%
2. < 0%
3. < 0%
4. < 0%

###

Exercise: state measured % inhibition of asexual blood stage proliferation for each of the molecules provided.
# Test system: Plasmodium falciparum NF54 asexual blood stage
# method: % inhibition of asexual blood stage proliferation (pLDH); higher = more inhibition
# settings: 2 µM; 72 h
Give bare numbers, in %.

As a guide, the following entries are already answered.
OCCCCn1cnc2c(O)nc(NCc3ccc(Cl)c(Cl)c3)nc21
18.9
CC(C)(C)c1ccc(C(Cn2cccc(C(F)(F)F)c2=O)NC2Cc3ccccc3C2)cc1 (stereo unspecified)
32.7
CC(Cc1ccccc1)C(=O)Nc1ccc(Cl)cc1C(=O)O (stereo unspecified)
35.5

The following molecules each have a reported value; give each one's % inhibition of asexual blood stage proliferation.
1. CCOC(=O)Nc1cc(NC(C)CC(C)CN(CC)CC)c2nc(-c3ccccc3)c(-c3ccccc3)nc2n1 (stereo unspecified)
2. CC1(C)Cc2c(C#N)c(SCCc3ccccc3)nc(N3CCOCC3)c2CO1
3. COc1ccc(-n2cnc3cc(NCc4ccco4)ccc32)cc1
4. COc1ccc(NC(=O)CC2Sc3ncnn3C2=O)cc1 (stereo unspecified)
5. COc1cc(NCc2ccc3nc(N)nc(N)c3c2C)cc(OC)c1OC

Response given:
37.7
17.3
29.7
29.9
40.8

Please state, for each entry, its recorded % inhibition of asexual blood stage proliferation.
1. Fc1ccc2c(/C=C/c3nnn[nH]3)c[nH]c2c1
2. Nc1nc(O)c2ncn(COCCO)c2n1
3. CC(C)(C)c1cc(C(=O)/C(C#N)=N/Nc2cccc(Cl)c2)no1
4. O=C(c1ccc(F)cc1)N1CCN2C(=O)c3ccccc3C12c1ccccc1 (stereo unspecified)
5. CCc1cc(CCC(=O)Nc2ccccc2O)c(=O)[nH]c1C
6. O=C(c1cc(O)nc2ccccc12)N1CCN(c2ccccc2)CC1

Response given:
1. 7.6
2. 21.3
3. -1.08
4. 37.1
5. -8.67
6. 24.8

###

# Tested on: HepG2-A16-CD81;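 further: HepG2-A16-CD81 hepatoma cells plated as in the liver-stage assay but without sporozoites, with DMSO wells as negative and 25 µM puromycin as positive control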
# method: % inhibition of HepG2 viability (CellTiter-Glo); higher = more toxic
# settings: 5 µM
measurement-name: % inhibition of HepG2 viability (%)
Answers are plain numbers, in %.

Answered examples (3):
N#CCN1C(=O)COc2cc(F)c(N3C(=O)c4ccccc4C3=O)cc21
-3.69
COc1cc(Cc2cnc(N)nc2N)cc(OC)c1OC
1.34
CC(C)N(c1cc(-c2ccccc2)sc1C(=O)O)C(=O)[C@H]1CC[C@H](C)CC1
-2.07

Each molecule below has a recorded value; state its % inhibition of HepG2 viability.
1. O=[N+]([O-])/C(Br)=C/c1ccc(Br)o1
2. CC(C)(C)NC(=O)N[C@H](C(=O)N1C[C@H]2[C@@H]([C@H]1C(=O)NC(CC1CCC1)C(=O)C(N)=O)C2(C)C)C(C)(C)C (stereo not given in full)

Response given:
-4.63
9.51

###

# System: CHO
# method: % viability of CHO cells (MTT); higher = less toxic
# settings: 20 µM; 48 h
measurement-name: % viability of CHO cells
Your answer should be a number followed by the unit of measure.

For orientation, consider the following solved cases.
CC(C)(C)OC(=O)NCc1ccc(C(=O)N[C@H]2CCOC2=O)cc1
115%
O=C(c1nc2c(C(F)(F)F)cc(C3CC3)cn2c1Cl)N1CCN([C@H]2CC[C@H](O)CC2)C(=O)C1
116%

Provide % viability of CHO cells values for the following items, in order.
1. O=C1NC(=O)C(Br)=C1Br
2. CN(C)CCNC(=O)c1cccc2cccnc12
3. OCCC#Cc1nc(-c2ccc(F)cc2)c(-c2ccncc2)n1CCCc1ccccc1

Response given:
1: 103%; 2: 19.6%; 3: 83%

List the reported % viability of CHO cells of each compound below.
1. Cc1onc(-c2ccccc2)c1-c1ccc(S(N)(=O)=O)cc1
2. CCCNc1ccc(S(=O)(=O)Nc2cc(C)on2)cc1
3. COc1cc(C2C3=C(CC(C)(C)CC3=O)Nc3ccccc3N2C(C)=O)ccc1OCc1ccccc1 (stereo not drawn)
4. CC(C)(C)NC(=O)[C@@H]1CN(Cc2cnc3occc3c2)CCN1C[C@@H](O)C[C@@H](Cc1ccccc1)C(=O)N[C@H]1c2ccccc2C[C@H]1O

Response given:
1: 106%; 2: 116%; 3: 58%; 4: 78.9%

Would you mind giving % viability of CHO cells for every compound in the list below?
1. Cc1nc2ccc(Cl)cc2c(-c2ccccc2)c1CC(=O)O
2. CC(N)C(=O)NC(CCCCN)C(=O)NC(CCCNC(=N)N)C(=O)NC(Cc1c[nH]cn1)C(=O)NC(Cc1c[nH]cn1)C(=O)NCC(=O)NC(Cc1ccc(O)cc1)C(=O)NC(CCCCN)C(=O)NC(CCCNC(=N)N)C(=O)NC(CCCCN)C(=O)NC(Cc1ccccc1)C(=O)NC(Cc1c[nH]cn1)C(N)=O (stereo not drawn)
3. CCC(CC)[C@H](NC(C)=O)[C@@H]1[C@H](O)[C@@H](C(=O)O)C[C@H]1NC(=N)N
4. COc1ccc(-n2cnc3cc(NCc4ccco4)ccc32)cc1

Response given:
1. 61.2%
2. 102%
3. 59.8%
4. 94.6%
